Molecular target: T1, mouse MAdCAM expressed on cells (mouse, UniProt Q61826 22-405)
T1 construct: whole, on cells
T1 sequence (looked up): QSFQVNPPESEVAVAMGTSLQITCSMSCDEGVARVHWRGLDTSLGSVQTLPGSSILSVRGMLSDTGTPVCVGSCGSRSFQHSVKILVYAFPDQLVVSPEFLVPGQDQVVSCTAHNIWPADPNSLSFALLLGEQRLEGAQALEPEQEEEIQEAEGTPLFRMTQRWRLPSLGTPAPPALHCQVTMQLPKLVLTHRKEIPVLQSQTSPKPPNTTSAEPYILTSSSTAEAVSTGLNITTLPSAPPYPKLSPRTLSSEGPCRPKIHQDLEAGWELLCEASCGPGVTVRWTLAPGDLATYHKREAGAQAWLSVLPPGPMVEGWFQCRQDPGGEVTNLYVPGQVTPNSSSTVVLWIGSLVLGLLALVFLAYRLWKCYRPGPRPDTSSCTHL
Assay: cell binding
experimentalEndpoint: binding result

Worked examples follow.
{"binder": "MAdCAM Antibody Table 2 Clone 75 (antibody, human IgG1, V domains shown) VH: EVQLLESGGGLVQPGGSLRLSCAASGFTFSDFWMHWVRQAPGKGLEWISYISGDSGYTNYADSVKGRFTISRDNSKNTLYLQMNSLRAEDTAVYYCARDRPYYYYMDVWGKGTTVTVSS VL: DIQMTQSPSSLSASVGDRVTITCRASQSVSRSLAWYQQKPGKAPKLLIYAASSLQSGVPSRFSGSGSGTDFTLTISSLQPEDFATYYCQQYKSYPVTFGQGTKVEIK", "experimentalEndpoint": "binding result", "result": "binds"}
{"binder": "MAdCAM Antibody Table 2 Clone 14 (antibody, human IgG1, V domains shown) VH: QVQLVQSGAEVKKPGSSVKVSCKASGYTFTNYYMHWVRQAPGQGLEWMGGIIPIVDGVKYAQKFQGRVTITADESTSTAYMELSSLRSEDTAVYYCAKGQFTGNYYYGMDYWGQGTLVTVSS VL: DIQMTQSPSSLSASVGDRVTITCQANQDISNYLNWYQQKPGKAPKLLIYRASKLEAGVPSRFSGSGSGTDFTLTISSLQPEDFATYYCQQSSEIPYSFGQGTKVEIK", "experimentalEndpoint": "binding result", "result": "no binding"}
{"binder": "MAdCAM Antibody Table 2 Clone 82 (antibody, human IgG1, V domains shown) VH: QVQLVQSGAEVKKPGASVKVSCKASGYTFTRHWIHWVRQAPGQGLEWMGWINVKTGGAGYAQKFQGRVTMTRDTSTSTVYMELSSLRSEDTAVYYCARESSGWYGTDVWGQGTTVTVSS VL: DIQMTQSPSSLSASVGDRATITCRASQSISNYLAWYQQKPGKAPKLLIYAASSLQSGVPSRFSGSGSGTDFTLTISSLQPEDFATYYCQQSNSFPLTFGGGTKVEIK", "experimentalEndpoint": "binding result", "result": "binds"}
{"binder": "MAdCAM Antibody Table 2 Clone 46 (antibody, human IgG1, V domains shown) VH: EVQLLESGGGLVQPGGSLRLSCAASGFSFSSYTMNWVRQAPGKGLEWVSFITSSSRTIYYADSVKGRFTISRDNSKNTLYLQMNSLRAEDTAVYYCARDRRGDYGDSWYFDLWGRGTLVTVSS VL: EIVMTQSPATLSVSPGERATLSCRASQSVRNYLAWYQQKPGQAPRLLIYGASTRATGIPARFSGSGSGTEFTLTISSLQSEDFAVYYCQQYGSSPLTFGGGTKVEIK", "experimentalEndpoint": "binding result", "result": "no binding"}

Let us examine a further case.
Please look up its binding result: MAdCAM Antibody Table 2 Clone 59 (antibody, human IgG1, V domains shown) VH: EVQLLESGGGLVQPGGSLRLSCAASGFSFSDYGMHWVRQAPGKGLEWVSAISGSGGSTYYADSVKGRFTISRDNSKNTLYLQMNSLRAEDTAVYYCARDGGWQPAAILDYWGQGTLVTVSS VL: DIQMTQSPSSLSASVGDRVTITCRASQGISNNLNWYQQKPGKAPKLLIYDASNLETGVPSRFSGSGSGTDFTLTISSLQPEDFATYYCQQSYSTPLTFGGGTKVEIK
no binding

Every entry's value here was drawn from patent US20210206856A1.
